# measuredOn: T1, human CD112R on Jurkat CD112R effector cells (human, UniProt Q6DKI7 1-326)
# T1 sequence (looked up): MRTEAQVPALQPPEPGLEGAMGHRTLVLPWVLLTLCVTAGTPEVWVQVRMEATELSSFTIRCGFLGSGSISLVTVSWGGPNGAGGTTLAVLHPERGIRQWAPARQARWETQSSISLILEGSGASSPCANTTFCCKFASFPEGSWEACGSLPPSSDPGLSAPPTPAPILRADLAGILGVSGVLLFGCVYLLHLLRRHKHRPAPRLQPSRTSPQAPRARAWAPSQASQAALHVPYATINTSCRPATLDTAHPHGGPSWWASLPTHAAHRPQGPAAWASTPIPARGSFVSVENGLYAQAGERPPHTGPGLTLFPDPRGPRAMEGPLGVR
# testName: cell-based or functional assay
measurementName: Relative activity (%), EC50 COM701/EC50 antibody
Express your answer in %, writing the number without its unit.

# example entries with known answers
Hu22 (antibody, IgG4, V domains shown, humanized IgG4) VH: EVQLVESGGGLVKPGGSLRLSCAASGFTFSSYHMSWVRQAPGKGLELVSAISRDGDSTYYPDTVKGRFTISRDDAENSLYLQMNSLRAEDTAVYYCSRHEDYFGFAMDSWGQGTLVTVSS VL: DIVMTQSPDSLAVSLGERATINCKASQSVSNDVAWYQQKPGQPPKLLIYYVSHRFTGVPDRFSGSGSGTDFTLTISSLQAEDVAVYFCHQAYRSPWTFGQGTKLEIK | 191
Hu26 (antibody, IgG4, V domains shown, humanized IgG4) VH: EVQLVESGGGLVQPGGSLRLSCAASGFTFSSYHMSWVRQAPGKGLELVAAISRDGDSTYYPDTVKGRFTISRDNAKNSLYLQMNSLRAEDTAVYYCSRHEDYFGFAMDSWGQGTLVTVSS VL: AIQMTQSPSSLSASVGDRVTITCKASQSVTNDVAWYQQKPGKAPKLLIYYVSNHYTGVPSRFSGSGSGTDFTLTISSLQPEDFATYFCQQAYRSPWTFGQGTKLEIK | 183

[Q] Give the measured Relative activity (%), EC50 COM701/EC50 antibody of Hu44 (antibody, IgG4, V domains shown) VH: EVQLVESGGGLVKPGGSLRLSCAASGFTFSSYHMSWVRQAPGKGLELVSAINSNVISTYYLDTVKGRFTISRDNAKNSLYLQMNSLRAEDTAVYYCARHEDYYGFAMDYWGQGTLVTVSS VL: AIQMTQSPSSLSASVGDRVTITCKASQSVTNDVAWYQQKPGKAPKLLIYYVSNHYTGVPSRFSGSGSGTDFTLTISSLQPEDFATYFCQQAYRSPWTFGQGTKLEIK .
[A] 174

[Q] For Hu13 (antibody, IgG4, V domains shown, humanized IgG4) VH: EVQLVESGGGLVKPGGSLRLSCAASGFTFSSYHMSWVRQAPGKGLELVSAISRDGDSTYYPDTVKGRFTISRDNAKNSLYLQMNSLRAEDTAVYYCSRHEDYFGFAMDSWGQGTLVTVSS VL: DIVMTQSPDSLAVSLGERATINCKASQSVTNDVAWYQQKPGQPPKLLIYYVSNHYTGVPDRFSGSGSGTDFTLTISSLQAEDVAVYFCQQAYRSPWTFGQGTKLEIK , what is its reported Relative activity (%), EC50 COM701/EC50 antibody?
[A] 192

[Q] I am curious: what Relative activity (%), EC50 COM701/EC50 antibody value has been reported for Hu24 (antibody, IgG4, V domains shown, humanized IgG4) VH: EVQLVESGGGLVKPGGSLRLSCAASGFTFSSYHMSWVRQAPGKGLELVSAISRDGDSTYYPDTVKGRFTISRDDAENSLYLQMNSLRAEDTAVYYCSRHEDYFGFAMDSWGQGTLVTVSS VL: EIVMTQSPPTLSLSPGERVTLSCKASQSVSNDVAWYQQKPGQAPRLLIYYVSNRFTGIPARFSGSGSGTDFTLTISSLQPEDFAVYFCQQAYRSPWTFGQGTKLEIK ?
[A] 167

[Q] # query: Relative activity (%), EC50 COM701/EC50 antibody of entry Hu4 (antibody, IgG4, V domains shown, humanized IgG4; also called Hu-04) VH: EVQLVESGGGLVQPGGSLRLSCAASGFTFSSYHMSWVRQAPGKGLELVAAINSNDINTYYLDTVKGRFTISRDIAKNSLYLQMNSLRAEDTAVYYCARHEDYYGFAMDYWGQGTLVTVSS VL: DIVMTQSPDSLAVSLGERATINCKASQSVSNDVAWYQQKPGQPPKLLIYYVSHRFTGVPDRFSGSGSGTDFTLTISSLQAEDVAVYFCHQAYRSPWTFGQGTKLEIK
[A] 186

[Q] What does the record list as Relative activity (%), EC50 COM701/EC50 antibody for Hu43 (antibody, IgG4, V domains shown) VH: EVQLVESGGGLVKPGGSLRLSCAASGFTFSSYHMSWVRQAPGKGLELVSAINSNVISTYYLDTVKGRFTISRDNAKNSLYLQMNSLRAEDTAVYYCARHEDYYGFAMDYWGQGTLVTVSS VL: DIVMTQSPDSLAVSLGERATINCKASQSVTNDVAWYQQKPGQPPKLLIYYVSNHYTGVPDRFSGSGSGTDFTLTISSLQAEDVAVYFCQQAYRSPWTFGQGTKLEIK ?
[A] 158

[Q] What value of measured Relative activity (%), EC50 COM701/EC50 antibody is listed for Hu41 (antibody, IgG4, V domains shown) VH: EVQLVESGGGLVQPGGSLRLSCAASGFTFSSYHMSWVRQAPGKGLELVSAINSNVISTYYLDTVKGRFTISRDNAKNSLYLQMNSLRAEDTAVYYCARHEDYYGFAMDYWGQGTLVTVSS VL: DIQMTQSPSSLSASVGDRVTITCKASQSVSNDVAWYQQKPGKAPKLLIYYVSNRFTGVPSRFSGSGSGTDFTLTISSLQPEDFATYFCQQAYRSPWTFGQGTKLEIK ?
[A] 243

[Q] Can you look up the measured Relative activity (%), EC50 COM701/EC50 antibody of Hu2 (antibody, IgG4, V domains shown, humanized IgG4; also called Hu-02) VH: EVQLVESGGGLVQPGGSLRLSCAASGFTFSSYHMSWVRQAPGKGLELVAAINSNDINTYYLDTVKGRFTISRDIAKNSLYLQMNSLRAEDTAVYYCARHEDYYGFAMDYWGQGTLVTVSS VL: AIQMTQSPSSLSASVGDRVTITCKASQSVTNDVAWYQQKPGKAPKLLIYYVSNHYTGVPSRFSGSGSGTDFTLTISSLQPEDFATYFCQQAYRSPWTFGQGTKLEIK for me?
[A] 110

[Q] Recorded Relative activity (%), EC50 COM701/EC50 antibody of Hu32 (antibody, IgG4, V domains shown, humanized IgG4) VH: EVQLVESGGGLVQPGGSLRLSCAASGFTFSSYHMSWVRQAPGKGLELVAAISRDGDSTYYPDTVKGRFTISRDDAENSLYLQMNSLRAEDTAVYYCSRHEDYFGFAMDSWGQGTLVTVSS VL: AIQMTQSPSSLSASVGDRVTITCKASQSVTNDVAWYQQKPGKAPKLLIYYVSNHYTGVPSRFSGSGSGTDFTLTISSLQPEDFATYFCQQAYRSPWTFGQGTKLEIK , please.
[A] 119
